assay: recombinant UMI read abundance after kanamycin selection (control-corrected) (log10(CPM+1)); higher = more efficient recombination; extreme values may be limits of the assay; sequences stand for … in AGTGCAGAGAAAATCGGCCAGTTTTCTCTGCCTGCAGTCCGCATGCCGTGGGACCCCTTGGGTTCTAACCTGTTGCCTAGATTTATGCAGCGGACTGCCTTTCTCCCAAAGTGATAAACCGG…AGGTTGGTTTCACT; site = the 11-nt donor;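 note: IS621 bridge recombinase in Escherichia coli cells against a fixed T5 target plasmid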
The entries below are paired with their reported recombinant UMI read abundance (log10).
Please reply with the number alone, leaving off any unit.

Solved cases (8 shown):
>>> value_observed("GAGAAACCATGGACCGGTTTTCCCGGTAATCCGTATTTGGT (site GAAAAACCTAC)")
0
>>> value_observed("GGATAGACATGGACCGGTTTTCCCGGTAATCCGTATTTGCC (site GGATAGACTTG)")
1.75
>>> value_observed("CCCTAGACATGGACCGGTTTTCCCGGTAATCCGTATTTGCC (site CCCTAGACTGG)")
1.04
>>> value_observed("AGCTCAGCATGGACCGGTTTTCCCGGTAATCCGTATTTGAG (site AGCTCAGCTCG)")
0
>>> value_observed("TTAGTATCATGGACCGGTTTTCCCGGTAATCCGTATTTGAG (site CTAGTATCTGT)")
0
>>> value_observed("TCACAGACATGGACCGGTTTTCCCGGTAATCCGTATTTGCG (site TCAAAGACTCG)")
0.308
>>> value_observed("AATGCACCATGGACCGGTTTTCCCGGTAATCCGTATTTGTG (site AATGCACCTCA)")
0.0217
>>> value_observed("GAGACTACATGGACCGGTTTTCCCGGTAATCCGTATTTGAA (site GAGACTACTTT)")
0.551

Lookup: Item under review: CACTCGGCATGGACCGGTTTTCCCGGTAATCCGTATTTGTA (site CACTCGGCTTA) . Reported recombinant UMI read abundance (log10)?
Found: 2.18

Lookup: Item: CCCTAACCATGGACCGGTTTTCCCGGTAATCCGTATTTGCC (site CCCTATCCTGG)
Found: 0

Lookup: Now the sequence AGTCTACCATGGACCGGTTTTCCCGGTAATCCGTATTTGCT (site AGTCTACCTAG)
Found: 0

Lookup: Query CCTAACGCATGGACCGGTTTTCCCGGTAATCCGTATTTGAT (site CCTAACGCTAT) next
Found: 0

* * *

experiment: recombinant UMI read abundance after kanamycin selection (control-corrected) (log10(CPM+1)); higher = more efficient recombination; extreme values may be limits of the assay; sequences stand for … in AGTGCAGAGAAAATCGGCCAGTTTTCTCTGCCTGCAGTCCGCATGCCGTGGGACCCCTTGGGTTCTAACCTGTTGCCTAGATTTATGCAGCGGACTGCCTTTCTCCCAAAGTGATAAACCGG…AGGTTGGTTTCACT; site = the 11-nt donor
Here, each record is paired with measured recombinant UMI read abundance (log10) data.
Answer using only a numeral; do not append any unit.

Example entries and their recorded answers appear below.
>>> value_observed("GATTAGCCATGGACCGGTTTTCCCGGTAATCCGTATTTGCT (site GATTACCCTAG)")
0
>>> value_observed("AGGAGTCCATGGACCGGTTTTCCCGGTAATCCGTATTTGAA (site AGGAGTCCTTT)")
1.07
>>> value_observed("GTAAGTACATGGACCGGTTTTCCCGGTAATCCGTATTTGAC (site GTAGGTACTGT)")
0.255

Lookup: For the sequence GGAATGGCATGGACCGGTTTTCCCGGTAATCCGTATTTGGT (site GGAATGGCTAC) , what recombinant UMI read abundance (log10) is on record?
Found: 1.5

Lookup: Now give it for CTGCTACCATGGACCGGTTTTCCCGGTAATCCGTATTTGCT (site GTGCTACCTAG) too.
Found: 0

Lookup: Entry TAGAAATCATGGACCGGTTTTCCCGGTAATCCGTATTTGCG (site TAGCAATCTCG) please
Found: 1.42

Lookup: Another sequence to look at: AACCCCGCATGGACCGGTTTTCCCGGTAATCCGTATTTGAC (site AACCCCGCTGT)
Found: 2.32

Lookup: Similarly, AGGTAGGCATGGACCGGTTTTCCCGGTAATCCGTATTTGGC (site AGGTAGGCTGC) ?
Found: 2.65

Lookup: Also check TAGGAATCATGGACCGGTTTTCCCGGTAATCCGTATTTGCG (site TATGAATCTCG)
Found: 1.63

Origin of values: the supplement of paper PMC11208160
